Provenance of the data: PubChem BioAssay AID2060886

Test system: 653999-131-R-J2-PDC complex spheroids, growth inhibition;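 note: spheroids exposed to the agents for seven days before the readout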
Test: Anticancer human tumor 653999-131-R-J2-PDC patient-derived lung adenocarcinoma cell line growth inhibition [RAS]
Details: second compound 0.003 µM; first compound 0.0316 µM; active compounds read low
value_kind: viability, T/C

# example entries with known answers
molecule	system_name	test_result
CCN1CCN(Cc2ccc(Nc3ncc(F)c(-c4cc(F)c5nc(C)n(C(C)C)c5c4)n3)nc2)CC1 + CCn1c(-c2cccnc2C(C)OC)c2c3cc(ccc31)N1CCOC(CC(NC(=O)C(C(C)C)N(C)C(=O)C3(F)CCN(C(=O)C#CC(C)(C)N(C)C)CC3)C(=O)N3CCCC(N3)C(=O)OCC(C)(C)C2)C1	653999-131-R-J2-PDC complex spheroids, growth inhibition	75.5%
CC(C)NCC(C(=O)N1CCN(c2ncnc3c2C(C)CC3O)CC1)c1ccc(Cl)cc1 (stereo unspecified) + CCn1c(-c2cc(N3CCN(C)CC3)cnc2C(C)OC)c2c3cc(ccc31)-c1csc(n1)CC(NC(=O)C1CC1C)C(=O)N1CCCC(N1)C(=O)OCC(C)(C)C2	653999-131-R-J2-PDC complex spheroids, growth inhibition	72.5%
Nc1ccn(C2OC(CO)C(O)C2(F)F)c(=O)n1 (stereo unspecified) + CCn1c(-c2cc(N3CCN(C)CC3)cnc2C(C)OC)c2c3cc(ccc31)-c1csc(n1)CC(NC(=O)C1CC1C)C(=O)N1CCCC(N1)C(=O)OCC(C)(C)C2	653999-131-R-J2-PDC complex spheroids, growth inhibition	31.8%
CC(C)NCC(C(=O)N1CCN(c2ncnc3c2C(C)CC3O)CC1)c1ccc(Cl)cc1 (stereo unspecified) + CCn1c(-c2cccnc2C(C)OC)c2c3cc(ccc31)N1CCOC(CC(NC(=O)C(C(C)C)N(C)C(=O)C3(F)CCN(C(=O)C#CC(C)(C)N(C)C)CC3)C(=O)N3CCCC(N3)C(=O)OCC(C)(C)C2)C1	653999-131-R-J2-PDC complex spheroids, growth inhibition	86.8%
NC1c2ccccc2OC12CCN(c1cnc3c(N4CCCc5ncccc54)n[nH]c3n1)CC2 (stereo unspecified) + CCn1c(-c2cc(N3CCN(C)CC3)cnc2C(C)OC)c2c3cc(ccc31)-c1csc(n1)CC(NC(=O)C1CC1C)C(=O)N1CCCC(N1)C(=O)OCC(C)(C)C2	653999-131-R-J2-PDC complex spheroids, growth inhibition	60.7%

Annotate the molecule C=CC(=O)N1CCN(c2nc(OCC3CCCN3C)nc3c(F)c(-c4nc(N)cc(C)c4C(F)(F)F)c(Cl)cc23)C(C)C1 (stereo unspecified) + CCn1c(-c2cccnc2C(C)OC)c2c3cc(ccc31)N1CCOC(CC(NC(=O)C(C(C)C)N(C)C(=O)C3(F)CCN(C(=O)C#CC(C)(C)N(C)C)CC3)C(=O)N3CCCC(N3)C(=O)OCC(C)(C)C2)C1 with its measured viability, T/C.
102%
